// data source = PubChem BioAssay (EPA / NIEHS)

Read-out: Monocyte Chemoattractant Protein-1 (MCP1), CCL2 (gene 6347)
ASSAY PROTOCOL: BSK_SAg_MCP1: BioMAP Diversity Plus: SAg Assay for Monocyte Chemoattractant Protein-1 (MCP1) Biomarker Activity (AID 2283090)
CONDITION NOTES: primary human HUVEC with PBMC; actives raise or lower the signal
Experimental: BSK_SAg is a cell-based, multiplexed-readout assay that uses umbilical vein endothelium and peripheral blood mononuclear cells, a human vascular primary cell co-culture, with measurements taken at 24 hours after chemical dosing in a 96-well plate.BSK_SAg_MCP1 is an assay component measured in the BSK_SAg assay. It measures MCP-1 antibody related to regulation of gene expression using ELISA technology.Data from the assay component BSK_SAg_MCP1 was analyzed into 1 assay endpoint. […]
Activity calls are given as the source filed them. How the source made its calls: active means hit-call score of the fitted dose curve at least 0.9, where 1 is the maximum; inactive means score below 0.9.
Possible outcomes: active, inactive

{"columns": ["SMILES STRUCTURE", "CATEGORY"],
 "data": [
  ["COc1cc(C=O)cc2c1[C@H](COC(N)=O)[C@]1(OC(C)=O)ON2C[C@H]2[C@@H]1N2C(C)=O", "active"],
  ["Brc1ccc(Oc2ccccc2)cc1", "inactive"],
  ["CC(C)(C)OOC(C)(C)CCC(C)(C)OOC(C)(C)C", "inactive"],
  ["O=[N+]([O-])c1ccc(Oc2ccc(Cl)cc2Cl)cc1", "active"],
  ["c1ccc(NNc2ccccc2)cc1", "inactive"],
  ["Clc1ccc(C(c2ccc(Cl)cc2)C(Cl)Cl)cc1", "active"],
  ["CNC(=O)Oc1cccc2c1OC(C)(C)C2", "inactive"]
]}

* * *

ASSAY PROTOCOL: CCTE_Shafer_MEA_dev_network_spike_number: CCTE's Neural Network Formation Assay for Number of Network Spikes, Shafer Lab (AID 2284048);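 further: synchronized bursts across electrodes counted on days 5 7 9 12 and integrated as AUC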;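 on AC50: fit as a loss of signal meaning fewer network spikes than DMSO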
Activity calls are given as the source filed them. The calls were made as follows: active = hit-call score of the fitted dose curve at least 0.9, where 1 is the maximum; inactive = score below 0.9.

{"columns": ["MOLECULE", "AC50"],
 "data": [
  ["C1=Cc2cccc3cccc1c23", "inactive"],
  ["Nc1cc(Cl)cc(C(=O)O)c1Cl", "inactive"],
  ["CCCCOC(=O)c1ccccc1C(=O)OCc1ccccc1", "inactive"],
  ["CC(C)COC(=O)c1ccccc1C(=O)OCC(C)C", "inactive"],
  ["ClC1=C(Cl)C2(Cl)C3C(Cl)C=CC3C1(Cl)C2(Cl)Cl (stereo not given)", "inactive"],
  ["CN(C)[C@@H]1C(=O)C(C(N)=O)=C(O)[C@@]2(O)C(=O)C3=C(O)c4c(O)cccc4[C@@](C)(O)[C@H]3C[C@@H]12", "inactive"],
  ["CCC[CH2][Sn]([Cl])([CH2]CCC)[CH2]CCC", "56.5 nM (active)"],
  ["CC(C)(C)C(O)(CCc1ccc(Cl)cc1)Cn1cncn1 (stereo not given)", "801 nM (active)"],
  ["[O-][Cl+]O", "inactive"],
  ["CC(C)(O)c1cnn2c(-c3ccc(F)c(-c4c(F)cccc4C#N)c3)cnc2n1", "inactive"]
]}

* * *

Read-out: Pselectin, SELP (gene 6403)
ASSAY PROTOCOL: BSK_4H_Pselectin: BioMAP Diversity Plus: 4H Assay for Pselectin Biomarker Activity (AID 2283026)
CONDITION NOTES: primary human endothelial cells (HUVEC); actives raise or lower the signal
Active and inactive are the calls of the source. Rule for the calls: active = hit-call score of the fitted dose curve at least 0.9, where 1 is the maximum; inactive = score below 0.9.
Possible outcomes: t = active, f = inactive

{"columns": ["MOLECULE", "CATEGORY"],
 "data": [
  ["c1ccc(NNc2ccccc2)cc1", "f"],
  ["C[C@]12C=CC3=C4CCC(=O)C=C4CC[C@H]3[C@@H]1CC[C@@H]2O", "f"],
  ["ClCCOCCCl", "f"],
  ["CO[C@@H]1[C@H](OC(=O)NC(=O)CCl)CC[C@]2(CO2)[C@H]1[C@@]1(C)O[C@@H]1CC=C(C)C", "t"],
  ["CC(C)(O)c1cnn2c(-c3ccc(F)c(-c4c(F)cccc4C#N)c3)cnc2n1", "t"],
  ["ClC1=C(Cl)C2(Cl)C3C(Cl)C=CC3C1(Cl)C2(Cl)Cl (stereo unspecified)", "t"]
]}
